Assay: Stability in mouse liver microsomes
Format: in vitro ADME
measure: percent parent remaining after 60 min in liver microsomes

Q: Name the recorded percent parent remaining after 60 min in liver microsomes for `CC(C)(C)c1cc(-c2csc(-c3ccc(NC(=O)NC4CCNCC4)cc3Cl)c2)ccn1` .
Result: +++ (>60.1 = +++)

Q: Name the recorded percent parent remaining after 60 min in liver microsomes for `CC(C)OC(=O)Nc1ccc(-c2cc(-c3ccnc(C4(CO)CC4)c3)cs2)c(Cl)c1` .
Result: +++ (>60.1 = +++)

Q: Name the recorded percent parent remaining after 60 min in liver microsomes for `CS(=O)(=O)Nc1ccc(-c2cc(-c3ccnc(OCCC4(O)COC4)c3)cs2)c(Cl)c1` .
Result: +++ (>60.1 = +++)

Q: Name the recorded percent parent remaining after 60 min in liver microsomes for `CN(c1ccc(-c2cc(-c3ccnc(C4(CO)CC4)c3)cs2)c(Cl)c1)S(C)(=O)=O` .
Result: +++ (>60.1 = +++)
